The measured values listed here are drawn from paper PMC11955279.

For each record, write down the corresponding response.
B1: AtSEP3 (…3), wild type, in pGADT7 [Arabidopsis thaliana] / AtAP1 (APETALA1), in pGBKT7 [Arabidopsis thaliana] (parent complex)
chain 1: MGRGRVELKRIENKINRQVTFAKRRNGLLKKAYELSVLCDAEVALIIFSNRGKLYEFCSSSSMLRTLERYQKCNYGAPEPNVPSREALAVELSSQQEYLKLKERYDALQRTQRNLLGEDLGPLSTKELESLERQLDSSLKQIRALRTQFMLDQLNDLQSKERMLTETNKTLRLRLADGYQMPLQLNPNQEEVDHYGRHHHQQQQHSQAFFQPLECEPILQIGYQGQQDGMGAGPSVNNYMLGWLPYDTNSI
chain 2: not shown

# Variants of: B1
# TEST SUMMARY: yeast two-hybrid β-galactosidase activity assay; parent: 51; read off a plot

The variant chain 1 L99A, chain 1 L101A, chain 1 L108A showed response equal to ~21 β-galactosidase units

The variant chain 1 L99A showed response equal to ~31 β-galactosidase units

The variant chain 1 L99A, chain 1 L101A showed response equal to ~24 β-galactosidase units

The variant chain 1 L99A, chain 1 L101A, chain 1 L108A, chain 1 L115A showed response equal to ~25 β-galactosidase units

The variant chain 1 L99A, chain 1 L101A, chain 1 L108A, chain 1 L115A, chain 1 L116A showed response equal to ~15 β-galactosidase units
